target: T1, rhesus c-Met on 4MBr-5 cells (rhesus, UniProt F7H1K4 25-1381, Natural c-Met is cleaved at the furin site (KRKKR/S) into disulphide-linked alpha and beta subunits; given here as one mature polypeptide.)
T1 construct: also called rhesus c-Met antigen
T1 sequence (F7H1K4 entry or part of it limits assumed): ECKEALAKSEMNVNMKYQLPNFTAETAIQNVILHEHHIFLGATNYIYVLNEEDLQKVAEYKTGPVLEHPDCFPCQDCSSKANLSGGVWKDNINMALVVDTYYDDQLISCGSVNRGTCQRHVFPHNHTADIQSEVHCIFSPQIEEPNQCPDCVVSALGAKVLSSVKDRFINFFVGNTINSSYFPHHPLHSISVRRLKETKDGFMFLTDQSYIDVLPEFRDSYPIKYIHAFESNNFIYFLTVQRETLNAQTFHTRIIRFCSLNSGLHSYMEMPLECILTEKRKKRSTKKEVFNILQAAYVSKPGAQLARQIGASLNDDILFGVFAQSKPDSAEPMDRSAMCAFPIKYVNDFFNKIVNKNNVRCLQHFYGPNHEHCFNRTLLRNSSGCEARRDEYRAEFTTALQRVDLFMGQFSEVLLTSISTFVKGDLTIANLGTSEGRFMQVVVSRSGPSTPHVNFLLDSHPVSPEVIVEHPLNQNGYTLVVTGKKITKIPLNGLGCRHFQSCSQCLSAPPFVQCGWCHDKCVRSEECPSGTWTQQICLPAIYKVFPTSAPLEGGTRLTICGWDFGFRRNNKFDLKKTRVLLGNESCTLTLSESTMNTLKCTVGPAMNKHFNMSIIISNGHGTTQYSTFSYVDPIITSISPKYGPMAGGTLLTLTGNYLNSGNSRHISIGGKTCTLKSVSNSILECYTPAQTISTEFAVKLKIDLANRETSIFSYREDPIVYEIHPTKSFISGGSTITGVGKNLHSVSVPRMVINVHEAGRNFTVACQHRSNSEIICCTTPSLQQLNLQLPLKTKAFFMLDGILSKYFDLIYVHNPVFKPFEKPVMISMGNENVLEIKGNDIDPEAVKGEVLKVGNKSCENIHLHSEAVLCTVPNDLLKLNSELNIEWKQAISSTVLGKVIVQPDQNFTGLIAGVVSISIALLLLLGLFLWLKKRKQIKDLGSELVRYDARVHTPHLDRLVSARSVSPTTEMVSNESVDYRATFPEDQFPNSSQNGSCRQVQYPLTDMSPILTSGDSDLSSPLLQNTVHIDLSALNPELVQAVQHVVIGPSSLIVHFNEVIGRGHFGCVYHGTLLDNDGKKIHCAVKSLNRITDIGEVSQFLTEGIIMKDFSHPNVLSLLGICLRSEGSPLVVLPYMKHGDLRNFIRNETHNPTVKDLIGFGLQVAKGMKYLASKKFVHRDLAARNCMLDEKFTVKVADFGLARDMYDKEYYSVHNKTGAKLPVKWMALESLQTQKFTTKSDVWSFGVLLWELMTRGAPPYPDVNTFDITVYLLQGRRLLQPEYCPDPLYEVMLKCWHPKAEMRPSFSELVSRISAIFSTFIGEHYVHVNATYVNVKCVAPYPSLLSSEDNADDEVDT
run.description: flow cytometry, 4MBr-5 cells pre-incubated with 50 ng/mL HGF
measured.endpoint: EC50 (mg/L)
Just the number in mg/L, nothing appended.

Worked cases, EC50 given:
# binder, EC50 (mg/L)
rows = [
    ("mAb3d (antibody, human IgG1, kappa, V domains shown, Humanized IgG1 kappa, HC-41C, from wt/41C-chi-mAb3; also called humanized HC-41C antibody mAb3d) VH: QVQLQESGAEVKKPGASVKVSCKASGYTFTDYYLNWVRQACGQGLEWMGLIFPGNDKTEYSEKFKGRVTMTRDTSTSTVYMELSSLRSEDTAVYYCSGGDYGGFVYWGQGTLVTVSS VL: DIQLTQSPSSLSASVGDRVTITCGASENIYGALNWYQQKPGKAPKLLIYGATNLADGVPSRFSGSGSGTDFTLTISSLQPEDFATYYCQNVLSSPLTFGPGTKVDIKR", 0.05),
    ("mAb3a (antibody, human IgG1, kappa, V domains shown, Humanized IgG1 kappa, HC-41C, from wt/41C-chi-mAb3; also called humanized HC-41C antibody mAb3a) VH: QVQLVQSGAEVKKPGASVKVSCKASGYTFTDYYLNWVRQACGQGLEWMGLIFPGNDKTEYSEKFKGRVTLTTDTSISTAYMELSSLTSDDTALYYCSGGDYGGFVYWGQGTLVTVSS VL: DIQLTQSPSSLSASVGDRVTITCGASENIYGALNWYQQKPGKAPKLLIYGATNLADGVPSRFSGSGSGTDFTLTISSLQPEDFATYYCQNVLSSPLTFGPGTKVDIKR", 0.03),
]

Okay, next one:
Bench note: what EC50 did mAb3c (antibody, human IgG1, kappa, V domains shown, Humanized IgG1 kappa, HC-41C, from wt/41C-chi-mAb3; also called humanized HC-41C antibody mAb3c) VH: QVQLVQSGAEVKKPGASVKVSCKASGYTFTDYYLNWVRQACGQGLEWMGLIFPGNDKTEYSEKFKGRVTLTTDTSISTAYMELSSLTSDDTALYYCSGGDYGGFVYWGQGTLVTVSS VL: DIQMTQSPSSLSASVGDRVTITCGASENIYGALNWYQQKPGKAPKLLIYGATNLADGVPSRFSGSGSGTDFTLTISSLQPEDVATYYCQNVLSSPLTFGSGTKLEIKR show?
0.03

Cited source for all entries: patent US20240376214A1
